experiment: Particle size and polydispersity index of nanoparticle compositions (Zetasizer Nano ZS); type: physicochemical; conditions: Table 1A
This section presents molecules with their documented PDI values.

>  <Molecule>
CCCCCCCCCN(CCCCCCCC(=O)OC(CCCCCCCC)CCCCCCCC)CCCn1ccnc1 [Compound 8]

>  <PDI>
0.15

$$$$
>  <Molecule>
CCCCCCCCCOC(=O)CCCCCCCN(CCCCCCCC(=O)OC(CCCCCCCC)CCCCCCCC)CCCn1ccc(=O)[nH]c1=O [Compound 114]

>  <PDI>
0.11

$$$$
>  <Molecule>
CCCCCCCCC(CCC)OC(=O)CCCCCCCN(CCO)CCCCCCCC(=O)OC(CCCCCCCC)CCCCCCCC (stereo not drawn) [Compound 50]

>  <PDI>
0.100

$$$$
>  <Molecule>
CCCCCCCCCCCCCCCCCCN(CCO)CCCCCCCC(=O)OC(CCCCCCCC)CCCCCCCC [Compound 1]

>  <PDI>
0.091

$$$$
>  <Molecule>
CCCCCCCCCOC(=O)CCCCCCCN(CCCCCCCC(=O)OC(CCCCCCCC)CCCCCCCC)Cc1ccccc1 [Compound 94]

>  <PDI>
0.24

$$$$
>  <Molecule>
CCCCCCCCC(CCCCCCCC)OC(=O)CCCCCCCN(CCO)CCCCCCCC(=O)OC(CCCCCCCC)C1CC1 (stereo not drawn) [Compound 65]

>  <PDI>
0.12

$$$$
>  <Molecule>
CCCCCCCCC(CCCCCCCC)OC(=O)CCCCCCCN(CCO)C(C)CCCCCCCCOC(=O)CCCCCCC (stereo not drawn) [Compound 161]

>  <PDI>
0.09

$$$$
>  <Molecule>
CCCCCCCCOP(=O)(OCCCCCCCC)OCCCCCCCN(CCO)CCCCCCCC(=O)OC(C)CCCCCCCC (stereo not drawn) [Compound 132]

>  <PDI>
0.180

$$$$
>  <Molecule>
CCCCCCCCC(C)OC(=O)CCCCCN(CCO)CCCCCCCC(=O)OC(CCCCCCCC)CCCCCCCC (stereo not drawn) [Compound 122]

>  <PDI>
0.09

$$$$
>  <Molecule>
CCCCCCCCC(CCCCCCCC)OC(=O)CCCCCCCN(CCO)CCCCCCCC(=O)OCC(C)CCCCCCC (stereo not drawn) [Compound 184]

>  <PDI>
0.13

$$$$
>  <Molecule>
CCCCCCCCCOC(=O)CCCCCCCN(CCO)CCCCCCCC(=O)OC1CCCCCCCCCCCCCC1 [Compound 81]

>  <PDI>
0.14

$$$$
>  <Molecule>
CCCCCCCCCOC(=O)CCCCCCCN(CCCCCCCC(=O)OC(CCCCCCCC)CCCCCCCC)C[C@@H](C)O [Compound 11]

>  <PDI>
0.13

$$$$
>  <Molecule>
CCCCCCCCC(C)OC(=O)CCCN(CCO)CCCCCCCC(=O)OC(CCCCCCCC)CCCCCCCC (stereo not drawn) [Compound 70]

>  <PDI>
0.15

$$$$
>  <Molecule>
CCCCCCCCCOC(=O)CCCCCCCN(CCCCCCCC(=O)OC(CCCCCCCC)CCCCCCCC)CC(C)O (stereo not drawn) [Compound 10]

>  <PDI>
0.18

$$$$
>  <Molecule>
CCCCCCCCC(CCCCCCCC)OC(=O)CCCCCCCN(CCO)CCCCCCCC [Compound 4]

>  <PDI>
0.21

$$$$

---

assay: Particle size and polydispersity index of nanoparticle compositions (Zetasizer Nano ZS); assay type: physicochemical; settings: Table 1B; formulated with hEPO mRNA
Below: a set of entries, each annotated with reported Size (nm).

>  <Compound>
CCCCCCCCCOC(=O)CCCCCCCN(CCO)CCCCCCCOC(=O)C(CCCCCCCC)CCCCCCCC

>  <Size (nm)>
76.3

$$$$
>  <Compound>
CCCCCCCCC(C)OC(=O)CCCCCN(CCO)CCCCCCCC(=O)OC(CCCCCCCC)CCCCCCCC (stereo not drawn)

>  <Size (nm)>
70.2

$$$$
>  <Compound>
CCCCCCCCCOC(=O)CCCCCCCN(CCCCCCCC(=O)OC(CCCCCCCC)CCCCCCCC)CCCNC(=O)NC

>  <Size (nm)>
60.6

$$$$
>  <Compound>
CCCCCCCCCOC(=O)CCCCCCCN(CCCCCCCC(=O)OC(CCCCCCCC)CCCCCCCC)CCCC(=O)NC

>  <Size (nm)>
71.3

$$$$
>  <Compound>
CCCCCCCCCOC(=O)CCCCCCCN(CCCCCCCC(=O)OC(CCCCCCCC)CCCCCCCC)CCCNS(C)(=O)=O

>  <Size (nm)>
75

$$$$
>  <Compound>
CCCCCCCCCOC(=O)CCCCCCCN(CCCCCCCC(=O)OC(CCCCCCCC)CCCCCCCC)CCCNC(=S)N(C)C

>  <Size (nm)>
93.3

$$$$
>  <Compound>
CCCC/C=C\CCC(CC/C=C\CCCC)OC(=O)CCCCCCCN(CCO)CCCCCCCC(=O)OCCCCCCCCC

>  <Size (nm)>
88.9

$$$$
>  <Compound>
CCCCCCCCC(CCCCCCCC)OC(=O)CCCCCCCN(CCO)CCCCCCCCCC(=O)OCCCCCCC

>  <Size (nm)>
95.5

$$$$
>  <Compound>
CCCCCCCCCOC(=O)CCCCCCCN(CCCCCCCC(=O)OC(CCCCCCCC)CCCCCCCC)CCCNC(=O)N(C)C

>  <Size (nm)>
73.3

$$$$
>  <Compound>
CCCCCCCCCOC(=O)CCCCCCCNCCCCCCCC(=O)OC(CCCCCCCC)CCCCCCCC

>  <Size (nm)>
82.5

$$$$
>  <Compound>
CCCCCCCCCCCOC(=O)CCCCCN(CCO)CCCCCCCC(=O)OC(CCCCCCCC)CCCCCCCC

>  <Size (nm)>
69.7

$$$$
>  <Compound>
CCCCC/C=C\C/C=C\CCCCCCCCC(CCCCCCCC/C=C\C/C=C\CCCCC)OC(=O)CCCN(C)C [MC3, DLin-MC3-DMA, reference compound]

>  <Size (nm)>
57.7

$$$$
>  <Compound>
CCCCCCCCCOC(=O)CCCCCCCN(CCO)CCCCCCCC(=O)OC(CCCCCCCC)CCCCCCCC

>  <Size (nm)>
73.7

$$$$
>  <Compound>
CCCCCCCCCOC(=O)CCCCCCCN(CCO)CCCCCCCCCC(=O)OC(CCCCCC)CCCCCC

>  <Size (nm)>
111.9

$$$$
>  <Compound>
CCCCCCCCC(CCCCCCCC)OC(=O)CCCCCCCN(CCO)CCCCCC(=O)OC(C)CCCCCCCCOC(C)=O (stereo not drawn)

>  <Size (nm)>
228

$$$$

---

// Size (nm) lookup, one value per entry
assay: Particle size and polydispersity index of nanoparticle compositions (Zetasizer Nano ZS); type: physicochemical; settings: Table 1A; lipid:DSPC:cholesterol:PEG-DMG 50:10:38.5:1.5 mol %
Measurement kind: Size (nm)

>  <Compound>
CCCCCCCCCOC(=O)CCCCCCCN(CCCCCCCC(=O)OC(CCCCCCCC)CCCCCCCC)CCCNC(=O)NC [Compound 112]

>  <Measurement kind>
Size (nm)

>  <Units symbol>
nm

>  <Experimental result>
83.7

$$$$
>  <Compound>
CCCCCCCCCOC(=O)CCCCCCCN(CCO)CCCCCCCC(=O)OC(CCCCC)CCCCCCCC (centres unmarked) [Compound 33]

>  <Measurement kind>
Size (nm)

>  <Units symbol>
nm

>  <Experimental result>
107.3

$$$$
>  <Compound>
CCCCCCCCCOC(=O)CCCCCCCN(CCO)CCN(CCO)CCCCCCCC(=O)OC(CCCCCCCC)CCCCCCCC [Compound 159]

>  <Measurement kind>
Size (nm)

>  <Units symbol>
nm

>  <Experimental result>
75.9

$$$$
>  <Compound>
CCCCCCCCCOC(=O)CCCN(CCO)CCCCCCCC(=O)OC(CCCCCCCC)CCCCCCCC [Compound 26]

>  <Measurement kind>
Size (nm)

>  <Units symbol>
nm

>  <Experimental result>
91.9

$$$$
>  <Compound>
CCCCCCCCCOC(=O)CCCCCCCN(CCCCCCCC(=O)OC(CCCCCCCC)CCCCCCCC)CCCNC(C)=O [Compound 108]

>  <Measurement kind>
Size (nm)

>  <Units symbol>
nm

>  <Experimental result>
119

$$$$
>  <Compound>
CCCCCCCCCOC(=O)CCCCCCCN(CCCCCCCC(=O)OC(CCCCCCCC)CCCCCCCC)CCCN1C(=O)CNC1=O [Compound 174]

>  <Measurement kind>
Size (nm)

>  <Units symbol>
nm

>  <Experimental result>
84.4

$$$$
>  <Compound>
CCCCCCCCCOC(=O)CCCCCCCN(CCCCCCCC(=O)OC(CCCCCCCC)CCCCCCCC)CCCN/C(=N/C#N)N(C)C [Compound 168]

>  <Measurement kind>
Size (nm)

>  <Units symbol>
nm

>  <Experimental result>
102.3

$$$$
>  <Compound>
CCCCCCCCC(CCCCCCCC)OC(=O)CCCCCCCN(C)CCCCCCCC(=O)OC(CCCCCCCC)CCCCCCCC [Compound 124]

>  <Measurement kind>
Size (nm)

>  <Units symbol>
nm

>  <Experimental result>
61.3

$$$$
>  <Compound>
CCCCCCCCCOC(=O)C(C)CCCCCCN(CCO)CCCCCCCC(=O)OC(CCCCCCCC)CCCCCCCC (centres unmarked) [Compound 164]

>  <Measurement kind>
Size (nm)

>  <Units symbol>
nm

>  <Experimental result>
84.5

$$$$
>  <Compound>
CCCCCCCCCOC(=O)CCCCCCCN(CCO)CCCCCCCC(=O)OC(CCCCCCCC)CCCCCCCC [Compound 18]

>  <Measurement kind>
Size (nm)

>  <Units symbol>
nm

>  <Experimental result>
87.9

$$$$
>  <Compound>
CCCCCCCCC(CCCCCCCC)OC(=O)CCCCCCCN(CCO)CCCCCCCC(=O)OC(CCCCCCCC)CCCCCCCC [Compound 29]

>  <Measurement kind>
Size (nm)

>  <Units symbol>
nm

>  <Experimental result>
66.8

$$$$
>  <Compound>
CCCCCCCCCOC(=O)CCCCCCCN(CCCCCCCC(=O)OC(CCCCCCCC)CCCCCCCC)CCCNc1c(NC)c(=O)c1=O [Compound 182]

>  <Measurement kind>
Size (nm)

>  <Units symbol>
nm

>  <Experimental result>
84.4

$$$$
>  <Compound>
CCCCCCCC/C=C\CCCCCCCCN(CCO)CCCCCCCC(=O)OC(CCCCCCCC)CCCCCCCC [Compound 31]

>  <Measurement kind>
Size (nm)

>  <Units symbol>
nm

>  <Experimental result>
73.9

$$$$
>  <Compound>
CCCCCCCCCOC(=O)CCCCCCCN(CCO)CCCCCCCC(=O)OC(CCC1CC1CCCC)CCC1CC1CCCC (centres unmarked) [Compound 160]

>  <Measurement kind>
Size (nm)

>  <Units symbol>
nm

>  <Experimental result>
89.0

$$$$
>  <Compound>
CCCCCCCCCOC(=O)CCCCCCCN(CCCO)CCCCCCCC(=O)OC(CCCCCCCC)CCCCCCCC [Compound 19]

>  <Measurement kind>
Size (nm)

>  <Units symbol>
nm

>  <Experimental result>
101.1

$$$$
>  <Compound>
CCCCCCCCC(CCCCCCCC)OC(=O)CCCCCCCN(CCO)CCCCCCCC(=O)N(C)CCCCCCCC [Compound 145]

>  <Measurement kind>
Size (nm)

>  <Units symbol>
nm

>  <Experimental result>
176.5

$$$$
>  <Compound>
CCCCCCCCCOC(=O)CCCCCCCN(CCCCCCCC(=O)OC(CCCCCCCC)CCCCCCCC)CCC(=O)O [Compound 125]

>  <Measurement kind>
Size (nm)

>  <Units symbol>
nm

>  <Experimental result>
90.9

$$$$
>  <Compound>
CCCCCCCCC(CCCCCCCC)OC(=O)CCCCCCCN(CCO)CCCCCCCC(=O)O[C@H](C)CCCCCCCC [Compound 172]

>  <Measurement kind>
Size (nm)

>  <Units symbol>
nm

>  <Experimental result>
77.3

$$$$
>  <Compound>
CCCCCCCCCOC(=O)CCCCCCCN(CCO)CCCCCCCC(=O)Oc1ccc(CCCCC)c(CCCCC)c1 [Compound 118]

>  <Measurement kind>
Size (nm)

>  <Units symbol>
nm

>  <Experimental result>
72.1

$$$$
>  <Compound>
CCCCCCCCC(CC)OC(=O)CCCCCCCN(CCO)CCCCCCCC(=O)OC(CCCCCCCC)CCCCCCCC (centres unmarked) [Compound 49]

>  <Measurement kind>
Size (nm)

>  <Units symbol>
nm

>  <Experimental result>
88

$$$$
>  <Compound>
CCCC/C=C\CCC(CC/C=C\CCCC)OC(=O)CCCCCCCN(CCO)CCCCCCCC(=O)OCCCCCCCCC [Compound 60]

>  <Measurement kind>
Size (nm)

>  <Units symbol>
nm

>  <Experimental result>
95.1

$$$$
>  <Compound>
CCCCCCCCCOC(=O)CCCCCCCN(CCO)CCCCCCCC(=O)OC(CC)CCCCCCCC (centres unmarked) [Compound 35]

>  <Measurement kind>
Size (nm)

>  <Units symbol>
nm

>  <Experimental result>
151.1

$$$$
>  <Compound>
CCCCCCCCCOC(=O)CCCCCCCN(CCO)CCCCCCCC(=O)Oc1ccc(CCCCC)cc1 [Compound 119]

>  <Measurement kind>
Size (nm)

>  <Units symbol>
nm

>  <Experimental result>
60.8

$$$$
>  <Compound>
CCCCCCCCC(CCCCCCCC)OC(=O)CCCCCCCN(CCO)CCCCCCCC(=O)OCC1CC1CCCCCC (centres unmarked) [Compound 28]

>  <Measurement kind>
Size (nm)

>  <Units symbol>
nm

>  <Experimental result>
99.4

$$$$
>  <Compound>
CCCCCCCCC(CC)OC(=O)CCCN(CCO)CCCCCCCC(=O)OC(CCCCCCCC)CCCCCCCC (centres unmarked) [Compound 72]

>  <Measurement kind>
Size (nm)

>  <Units symbol>
nm

>  <Experimental result>
76.8

$$$$
>  <Compound>
CCCCCCCCCOC(=O)CCCCCCCN(CCCCCCCC(=O)OC(CCCCCCCC)CCCCCCCC)CCCn1cc(CO)nn1 [Compound 218]

>  <Measurement kind>
Size (nm)

>  <Units symbol>
nm

>  <Experimental result>
81.4

$$$$
>  <Compound>
CCCCCCCCOP(=O)(OCCCCCCCC)OCCCCCCCN(CCO)CCCCCCCC(=O)OC(C)CCCCCCCC (centres unmarked) [Compound 132]

>  <Measurement kind>
Size (nm)

>  <Units symbol>
nm

>  <Experimental result>
298.0

$$$$
>  <Compound>
CCCCCCCCC(CCC)OC(=O)CCCN(CCO)CCCCCCCC(=O)OC(CCCCCCCC)CCCCCCCC (centres unmarked) [Compound 74]

>  <Measurement kind>
Size (nm)

>  <Units symbol>
nm

>  <Experimental result>
65.6

$$$$
>  <Compound>
CCCCCCCCCOC(=O)CCCCCCCN(CCO)CCCCCC(=O)OC(CCCCCCCC)CCCCCCCC [Compound 27]

>  <Measurement kind>
Size (nm)

>  <Units symbol>
nm

>  <Experimental result>
82.3

$$$$

# credit: patent US12263248B2
